Test: melting temperature; fluorescence melt of hairpins on a sequencing array, two-state fit, raised by 9.35 °C to match UV melts
Settings: sodium 0.088 M
Measured Tm, listed per entry for reference.
Numbers only; they are read as °C.

Take a look at these entries with their results.
GATGACGGAAACGTCGTC ((.((((....)))).)) : 52.8
GTCGTTGCGAAAGCAGAC (((..(((....)))))) : 49.2
GGTAATCCGAAAGGAACC (((..(((....)))))) : 26

Form field: reported Tm of GATCTGCTAACAGATC ((((((....)))))) 50.4

Query (sequence): GATATAGCGAAAGCTATC (((..(((....)))))) ; field requested: Tm 33.9

Entry GCTCCCGAAAGGGTTAGC ((((((....)))..))) : reported Tm = ? 43.3

Look up Tm: GCGTTAGGAAACTAACAC (.(((((....))))).) 35.9

For the sequence shown here, GGAGACGAAAGTCCGTCC ((((((....)))..))) , give the reported Tm. 32.5

What value of Tm has been reported for the following sequence? GTCACACGAAAGTGAGAC (((.(((....))).))) 55.1

Which Tm value is on record for GCGGTACCCCGC ((((....)))) ? 54.5
